Biological target: Cytochrome P450 2C19 (Homo sapiens) (UniProt P33261)
Sequence (P33261 whole entry, looked up): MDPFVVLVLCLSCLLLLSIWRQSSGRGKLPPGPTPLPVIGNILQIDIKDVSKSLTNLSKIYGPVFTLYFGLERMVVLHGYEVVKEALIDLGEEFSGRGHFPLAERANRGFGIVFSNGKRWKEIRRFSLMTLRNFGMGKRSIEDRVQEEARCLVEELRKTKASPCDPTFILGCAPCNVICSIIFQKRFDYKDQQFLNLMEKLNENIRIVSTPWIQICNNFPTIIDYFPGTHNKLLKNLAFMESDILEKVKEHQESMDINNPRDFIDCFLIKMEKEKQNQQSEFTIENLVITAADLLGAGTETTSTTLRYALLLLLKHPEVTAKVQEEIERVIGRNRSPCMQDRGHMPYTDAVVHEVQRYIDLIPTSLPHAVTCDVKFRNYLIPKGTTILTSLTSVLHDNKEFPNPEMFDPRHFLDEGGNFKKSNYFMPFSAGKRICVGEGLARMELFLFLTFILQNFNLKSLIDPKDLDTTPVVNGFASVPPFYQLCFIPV
Experiment: Cytochrome panel assay with activity outcomes
Conditions: recombinant CYP, pro-luciferin dealkylation, luminescence, p450-cyp2c19; series mostly up to 57.1 µM
In all, about 16,000 compounds went through this assay and about 5,800 (36%) were called active. Another 23% or so got no clear call; they are omitted. Some of the results follow.
result-type: AC50

INSERT INTO measurements (compound, result_type, value_observed) VALUES
  ('Cc1cnc(CNc2ncnc3ccc(-c4ccccc4C)cc23)cn1', 'AC50', '15.8 µM (active)'),
  ('CN1CCC2(CC1)CCN(S(=O)(=O)c1ccccc1)CC2', 'AC50', 'inactive'),
  ('COc1ccccc1CN1CCC2(CC1)CCN(C(=O)c1cccn1C)CC2', 'AC50', 'inactive'),
  ('CCOc1ccc(N(CCC#N)S(=O)(=O)c2ccc(OC)cc2)cc1', 'AC50', '3.55 µM (active)'),
  ('O=C(NC(=S)NNC(=O)c1cccs1)c1ccco1', 'AC50', 'inactive'),
  ('Cc1ccc(C(CC(N)=O)c2ccco2)cc1 (centres undefined)', 'AC50', '14.1 µM (active)'),
  ('O=C1Nc2ccc(F)cc2C12SCCS2', 'AC50', '11.2 µM (active)'),
  ('Cc1cccc(NC(=S)NC(=O)c2cccs2)n1', 'AC50', '3.55 µM (active)'),
  ('C[N+](C)(C)CCCCCNCC12CC3CC(CC(C3)C1)C2', 'AC50', 'inactive'),
  ('CC(=O)NCCC(=O)Nc1sc2c(c1-c1nc3ccccc3[nH]1)CCCC2', 'AC50', '14.1 µM (active)'),
  ('Cc1cc2cc(CNC(=O)CC(C)C)ccc2n1C', 'AC50', '11.2 µM (active)'),
  ('Cc1ccc(OC[C@H](O)[C@H](C)NC(C)C)c2c1CCC2', 'AC50', 'inactive'),
  ('COc1ccc2cc3cc(C(=O)NCCCN4CCOCC4)oc3nc2c1', 'AC50', 'inactive'),
  ('CCc1ccc(OCC(=O)NNC(=O)CSc2ncnc3sc(C)c(C)c23)cc1', 'AC50', '11.2 µM (active)'),
  ('COc1ccccc1-n1c(SCC(=O)N2CCCC2)nc2cccnc21', 'AC50', 'inactive'),
  ('COc1cc(NC(=S)NC(=O)c2c(OC)cccc2OC)ccc1NC(=O)c1cccs1', 'AC50', '2 µM (active)'),
  ('Nc1nc(NCCc2ccc(O)cc2)nc2nc(-c3ccco3)nn12', 'AC50', 'inactive'),
  ('Cc1noc(C)c1C(=O)N1CCC2(CCCN(Cc3nccs3)C2)CC1', 'AC50', 'inactive'),
  ('CN1CCN(c2ncc3nc(-c4ccc(Cl)cc4)c(=O)n(Cc4ccc(F)cc4)c3n2)CC1', 'AC50', 'inactive'),
  ('Cc1nn(S(=O)(=O)c2cccs2)c(C)c1Sc1ccc([N+](=O)[O-])cc1', 'AC50', '0.562 µM (active)'),
  ('CCOC(=O)c1c(CC(C)C)csc1NC=O', 'AC50', '14.1 µM (active)'),
  ('Cc1ccc2c(c1)C1(SCCS1)C(=O)N2', 'AC50', '25.1 µM (active)'),
  ('O=C1c2ccccc2C(=O)N1CC1c2ccccc2CCN1S(=O)(=O)c1ccccc1 (centres undefined)', 'AC50', '2 µM (active)'),
  ('Oc1ccc([C@@H]2CNCCc3c2cc(O)c(O)c3Cl)cc1', 'AC50', 'inactive');

Source of measurements: PubChem BioAssay AID1851
